self-cleavage listing for selected variants.
B1: LINE1-full (parent)
chain: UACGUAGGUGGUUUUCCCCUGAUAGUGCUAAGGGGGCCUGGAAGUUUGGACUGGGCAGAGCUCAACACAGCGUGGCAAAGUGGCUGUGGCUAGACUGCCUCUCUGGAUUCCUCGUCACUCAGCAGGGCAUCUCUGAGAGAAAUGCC

# Variants of: B1
# procedure details: self-cleavage, relative activity (ratio to wild type); higher = more cleavage; in vitro, sequencing; the parent is a self-cleaving ribozyme
measured metric: self-cleavage

[[record]]
var = "G35A A124G"
recorded_number = 0.61

[[record]]
var = "U15A A57U"
recorded_number = 0.14

[[record]]
var = "A77G A94U"
recorded_number = 0.61

[[record]]
var = "U1C U29C"
recorded_number = 1.1

[[record]]
var = "A64G U112A"
recorded_number = 0.16

[[record]]
var = "U13C G35C"
recorded_number = 1.24

[[record]]
var = "G27C U112C"
recorded_number = 1.53

[[record]]
var = "U91C C99U"
recorded_number = 0.12

[[record]]
var = "A59G C110U"
recorded_number = 0.1

[[record]]
var = "A64C U115A"
recorded_number = 0.38

[[record]]
var = "G34A U85C"
recorded_number = 0.12

[[record]]
var = "A6G U108C"
recorded_number = 0.79

[[record]]
var = "A77U A124U"
recorded_number = 1.27

[[record]]
var = "U15C U73C"
recorded_number = 1.8

[[record]]
var = "A64G G127A"
recorded_number = 0.18

[[record]]
var = "U85A C128G"
recorded_number = 0.06

[[record]]
var = "U87A A92G"
recorded_number = 0.13

[[record]]
var = "U14A C63U"
recorded_number = 0.09

[[record]]
var = "A50C U132C"
recorded_number = 1.02

[[record]]
var = "G40U A124G"
recorded_number = 0.87

[[record]]
var = "A30U A59G"
recorded_number = 0.22

[[record]]
var = "G25A A117U"
recorded_number = 1.25

[[record]]
var = "G55C U73A"
recorded_number = 0.07

[[record]]
var = "A2G A129U"
recorded_number = 0.62

[[record]]
var = "U13A U96A"
recorded_number = 0.05

[[record]]
var = "G7A A22U"
recorded_number = 0.73

[[record]]
var = "G83U A141G"
recorded_number = 0.99

[[record]]
var = "U102C U112A"
recorded_number = 1.44

[[record]]
var = "U91C A129U"
recorded_number = 0.82

[[record]]
var = "A69G C111U"
recorded_number = 0.47

[[record]]
var = "U52C U132G"
recorded_number = 1.93

[[record]]
var = "U47C A50U"
recorded_number = 1.5

[[record]]
var = "C56U A77U"
recorded_number = 0.11

[[record]]
var = "A2G G36U"
recorded_number = 0.67

[[record]]
var = "U81A A92G"
recorded_number = 0.15

[[record]]
var = "A2U A107U"
recorded_number = 0.52

[[record]]
var = "G34U U134A"
recorded_number = 1.04


Origin of measurements: the RNAGym collection of RNA variant scans (doi:10.7554/elife.90254)
